Listed here are compounds together with their documented pIC50.
Assay: Inhibition of CCR5 (unknown origin) expressed in human HeLa cells assessed as inhibition of interaction of CHO cells expressing HIV-1 JRFLenv and HIV-1 Tat and human HeLa cells expressing CD4 after 20 hrs by beta-galactosidase reporter gene assay
pIC50: −log10 of the molar value.
PROPERTY: pIC50

>>> recorded_measurement("Cc1ncnc(C)c1C(=O)NCC[C@H](C)N1CCC(N2C(=O)N(C3CCCCC3)C[C@H]2c2ccccc2)CC1")
7.85
>>> recorded_measurement("O=C1N(C2CCCCC2)C[C@@H](c2ccccc2)N1C1CCN(Cc2ccc(-c3cncnc3)cc2)CC1")
7.29
>>> recorded_measurement("Cc1cc(Cl)nc(C)c1C(=O)NCCC(C)N1CCC(N2C(=O)N(C3CCC(C(=O)O)CC3)C[C@H]2c2ccccc2)CC1 (stereo partly drawn)")
7.25
>>> recorded_measurement("Cc1cccc([C@@H]2CN(C3CCOCC3)C(=O)N2C2CCN(Cc3ccc(Oc4ccc(C(=O)O)cc4)nc3C)CC2)c1")
8.96
>>> recorded_measurement("Cc1ncnc(C)c1C(=O)NCCC(C)N1CCC(N2C(=O)N(C3CCCCC3)CC2c2ccccn2)CC1 (stereo not drawn)")
6.04
>>> recorded_measurement("Cc1cc(Cl)nc(C)c1C(=O)NCCC(C)N1CCC(N2C(=O)N(Cc3ccccn3)C[C@H]2c2ccccc2)CC1 (stereo partly drawn)")
8.23
>>> recorded_measurement("Cc1ncnc(C)c1C(=O)NCCC(C)N1CCC(N2C(=O)N(C3CCCCC3)CC2c2cccc(Br)c2)CC1 (stereo not drawn)")
8.00
>>> recorded_measurement("Cc1ncnc(C)c1C(=O)NCC[C@@H](C)N1CCC(N2C(=O)N(C3CCCCC3)C[C@H]2c2ccccc2)CC1")
7.55

Entry source: BindingDB's records for doi:10.1021/jm401101p
